Origin of values: paper PMC12543283

This document collects Cell viability, HEK293T, Data3 values reported for human embryonic kidney cells (HEK293T).
Ends that are not written are not given here.
assayReadout: Cell viability, HEK293T, Data3

- substance: "IAVPHEP [TaPep47]"
  targetOfAssay: "human embryonic kidney cells (HEK293T)"
  number: 95.21
- substance: "FPEQQD [TaPep16]"
  targetOfAssay: "human embryonic kidney cells (HEK293T)"
  number: 97.38
- substance: "STGTIR [TaPep51]"
  targetOfAssay: "human embryonic kidney cells (HEK293T)"
  number: 101.55
- substance: "YAGNAP [TaPep10]"
  targetOfAssay: "human embryonic kidney cells (HEK293T)"
  number: 100.50
- substance: "SLEYEFK [TaPep38]"
  targetOfAssay: "human embryonic kidney cells (HEK293T)"
  number: 101.26
- substance: "PPLENT [TaPep39]"
  targetOfAssay: "human embryonic kidney cells (HEK293T)"
  number: 106.18
- substance: "NNDDEES [TaPep50]"
  targetOfAssay: "human embryonic kidney cells (HEK293T)"
  number: 99.56
- substance: "HGGDDLG [TaPep28]"
  targetOfAssay: "human embryonic kidney cells (HEK293T)"
  number: 96.62
- substance: "EPKVLV [TaPep54]"
  targetOfAssay: "human embryonic kidney cells (HEK293T)"
  number: 101.07
- substance: "HIDELDE [TaPep22]"
  targetOfAssay: "human embryonic kidney cells (HEK293T)"
  number: 94.26
- substance: "SNDPVA [TaPep71]"
  targetOfAssay: "human embryonic kidney cells (HEK293T)"
  number: 96.15
- substance: "LQPDAGK [TaPep6]"
  targetOfAssay: "human embryonic kidney cells (HEK293T)"
  number: 97.38
- substance: "AEDNSL [TaPep43]"
  targetOfAssay: "human embryonic kidney cells (HEK293T)"
  number: 97.76
- substance: "YDGTPLN [TaPep11]"
  targetOfAssay: "human embryonic kidney cells (HEK293T)"
  number: 104.38
- substance: "APEELDA [TaPep36]"
  targetOfAssay: "human embryonic kidney cells (HEK293T)"
  number: 104.67
- substance: "FEGDQDA [TaPep18]"
  targetOfAssay: "human embryonic kidney cells (HEK293T)"
  number: 100.41
- substance: "EVGMQE [TaPep56]"
  targetOfAssay: "human embryonic kidney cells (HEK293T)"
  number: 97.38

----------
Cell viability, BEAS-2B, Data3 for assorted substances
- System: human bronchial epithelial cells (BEAS-2B)
Ends that are not written are not given here.
assayReadout: Cell viability, BEAS-2B, Data3

- substance: "DFKEELPK [TaPep42]"
  assayReadout: "Cell viability, BEAS-2B, Data3"
  number: 119.14
- substance: "HGGDDLG [TaPep28]"
  assayReadout: "Cell viability, BEAS-2B, Data3"
  number: 108.57
- substance: "LWGPVT [TaPep72]"
  assayReadout: "Cell viability, BEAS-2B, Data3"
  number: 90.43
- substance: "HIDELDE [TaPep22]"
  assayReadout: "Cell viability, BEAS-2B, Data3"
  number: 114.96
- substance: "SLEYEFK [TaPep38]"
  assayReadout: "Cell viability, BEAS-2B, Data3"
  number: 103.79
- substance: "NGDDEEG [TaPep7]"
  assayReadout: "Cell viability, BEAS-2B, Data3"
  number: 101.79
- substance: "YDGTPLN [TaPep11]"
  assayReadout: "Cell viability, BEAS-2B, Data3"
  number: 106.48
- substance: "TAEQVA [TaPep33]"
  assayReadout: "Cell viability, BEAS-2B, Data3"
  number: 105.48
- substance: "PPLENT [TaPep39]"
  assayReadout: "Cell viability, BEAS-2B, Data3"
  number: 113.76
- substance: "EFPEQN [TaPep17]"
  assayReadout: "Cell viability, BEAS-2B, Data3"
  number: 109.87
- substance: "SNDPVA [TaPep71]"
  assayReadout: "Cell viability, BEAS-2B, Data3"
  number: 114.26
- substance: "TIDDELR [TaPep26]"
  assayReadout: "Cell viability, BEAS-2B, Data3"
  number: 104.19

----------
- testDetails: Electronic tongue analysis (Taste-Sensing System SA 402B)
- Set-up: unit not given here
- experimentalParameters: sensor CT0, peptide 0.1 mg/mL, reference solution 30 mM KCl + 0.3 mM tartaric acid as baseline, detection threshold -6, room temperature, four replicates, first measurement excluded
Ends that are not written are not given here.

- substance: "LWGPVT [TaPep72]"
  Salty: -19.66
- substance: "SLEYLP [TaPep35]"
  Salty: -20.10
- substance: "YDGTPLN [TaPep11]"
  Salty: -21.79
- substance: "NNDDEES [TaPep50]"
  Salty: -22.53
- substance: "AEDNSL [TaPep43]"
  Salty: -20.35
- substance: "TIDDELR [TaPep26]"
  Salty: -21.44
- substance: "YQAENKH [TaPep14]"
  Salty: -18.09
- substance: "KADGNR [TaPep4]"
  Salty: -16.43
- substance: "LQPDAGK [TaPep6]"
  Salty: -19.24
- substance: "DQKVLA [TaPep3]"
  Salty: -20.13
- substance: "FEGDQDA [TaPep18]"
  Salty: -22.88
- substance: "SVLEFS [TaPep52]"
  Salty: -20.56
- substance: "EFPEQN [TaPep17]"
  Salty: -21.65
- substance: "TDPELV [TaPep60]"
  Salty: -20.71
- substance: "VPDELN [TaPep23]"
  Salty: -22.67
- substance: "SNDPVA [TaPep71]"
  Salty: -20.93
- substance: "AQSSLS [TaPep40]"
  Salty: -19.59
- substance: "EVGMQE [TaPep56]"
  Salty: -21.19
- substance: "AKDEKEL [TaPep1]"
  Salty: -19.14
- substance: "EPDDPDD [TaPep27]"
  Salty: -22.39
- substance: "EQGEQN [TaPep15]"
  Salty: -23.91
- substance: "PTELESD [TaPep41]"
  Salty: -20.79
- substance: "LGDDLVK [TaPep19]"
  Salty: -21.50
- substance: "SLEYEFK [TaPep38]"
  Salty: -19.89
- substance: "EDGPHGD [TaPep45]"
  Salty: -19.03
- substance: "FTEELE [TaPep32]"
  Salty: -20.95
- substance: "DQEPVE [TaPep44]"
  Salty: -19.30
- substance: "YKYHES [TaPep13]"
  Salty: -15.97
- substance: "TQEVVN [TaPep25]"
  Salty: -23.02
- substance: "LQPSLEH [TaPep59]"
  Salty: -19.53
- substance: "KNDESVD [TaPep48]"
  Salty: -19.00
- substance: "VAEDLL [TaPep8]"
  Salty: -22.00

----------
- System: human bronchial epithelial cells (BEAS-2B)
Ends that are not written are not given here.
assayReadout: Cell viability, BEAS-2B, Data1

- substance: "APEELDA [TaPep36]"
  assayReadout: "Cell viability, BEAS-2B, Data1"
  number: 111.17
- substance: "TDPELV [TaPep60]"
  assayReadout: "Cell viability, BEAS-2B, Data1"
  number: 105.88
- substance: "EQPLQA [TaPep21]"
  assayReadout: "Cell viability, BEAS-2B, Data1"
  number: 92.62
- substance: "TIDDELR [TaPep26]"
  assayReadout: "Cell viability, BEAS-2B, Data1"
  number: 95.61
- substance: "NGDDEEG [TaPep7]"
  assayReadout: "Cell viability, BEAS-2B, Data1"
  number: 94.72
- substance: "FEGDQDA [TaPep18]"
  assayReadout: "Cell viability, BEAS-2B, Data1"
  number: 109.67
- substance: "LQPDAGK [TaPep6]"
  assayReadout: "Cell viability, BEAS-2B, Data1"
  number: 91.82
- substance: "LQDVVE [TaPep24]"
  assayReadout: "Cell viability, BEAS-2B, Data1"
  number: 103.99
- substance: "VARLEA [TaPep9]"
  assayReadout: "Cell viability, BEAS-2B, Data1"
  number: 110.77
- substance: "EPKVLV [TaPep54]"
  assayReadout: "Cell viability, BEAS-2B, Data1"
  number: 95.01
- substance: "YAGNAP [TaPep10]"
  assayReadout: "Cell viability, BEAS-2B, Data1"
  number: 101.69
- substance: "FPEQQD [TaPep16]"
  assayReadout: "Cell viability, BEAS-2B, Data1"
  number: 98.50
- substance: "YDGTPLN [TaPep11]"
  assayReadout: "Cell viability, BEAS-2B, Data1"
  number: 102.59
- substance: "HIDELDE [TaPep22]"
  assayReadout: "Cell viability, BEAS-2B, Data1"
  number: 106.78
- substance: "SVLEFS [TaPep52]"
  assayReadout: "Cell viability, BEAS-2B, Data1"
  number: 105.38
- substance: "NNDDEES [TaPep50]"
  assayReadout: "Cell viability, BEAS-2B, Data1"
  number: 104.29
- substance: "HGGDDLG [TaPep28]"
  assayReadout: "Cell viability, BEAS-2B, Data1"
  number: 111.86
- substance: "LQPSLEH [TaPep59]"
  assayReadout: "Cell viability, BEAS-2B, Data1"
  number: 96.61
- substance: "PPLENT [TaPep39]"
  assayReadout: "Cell viability, BEAS-2B, Data1"
  number: 118.05
- substance: "DFKEELPK [TaPep42]"
  assayReadout: "Cell viability, BEAS-2B, Data1"
  number: 95.21
- substance: "SLEYLP [TaPep35]"
  assayReadout: "Cell viability, BEAS-2B, Data1"
  number: 106.58
- substance: "KADGNR [TaPep4]"
  assayReadout: "Cell viability, BEAS-2B, Data1"
  number: 99.00
- substance: "KGYEAV [TaPep5]"
  assayReadout: "Cell viability, BEAS-2B, Data1"
  number: 105.38
- substance: "SLEYEFK [TaPep38]"
  assayReadout: "Cell viability, BEAS-2B, Data1"
  number: 93.12
- substance: "VAEDLL [TaPep8]"
  assayReadout: "Cell viability, BEAS-2B, Data1"
  number: 114.76
- substance: "YQAENKH [TaPep14]"
  assayReadout: "Cell viability, BEAS-2B, Data1"
  number: 112.46
- substance: "LWGPVT [TaPep72]"
  assayReadout: "Cell viability, BEAS-2B, Data1"
  number: 118.74
- substance: "EDGPHGD [TaPep45]"
  assayReadout: "Cell viability, BEAS-2B, Data1"
  number: 89.83
- substance: "STGTIR [TaPep51]"
  assayReadout: "Cell viability, BEAS-2B, Data1"
  number: 100.20
- substance: "PTELESD [TaPep41]"
  assayReadout: "Cell viability, BEAS-2B, Data1"
  number: 117.85
- substance: "AQDDLP [TaPep20]"
  assayReadout: "Cell viability, BEAS-2B, Data1"
  number: 114.06
- substance: "KNDESVD [TaPep48]"
  assayReadout: "Cell viability, BEAS-2B, Data1"
  number: 105.18
- substance: "IAVPHEP [TaPep47]"
  assayReadout: "Cell viability, BEAS-2B, Data1"
  number: 109.97
- substance: "EEVPITD [TaPep46]"
  assayReadout: "Cell viability, BEAS-2B, Data1"
  number: 117.25
- substance: "TAEQVA [TaPep33]"
  assayReadout: "Cell viability, BEAS-2B, Data1"
  number: 90.33
- substance: "FTEELE [TaPep32]"
  assayReadout: "Cell viability, BEAS-2B, Data1"
  number: 104.99
- substance: "EVGMQE [TaPep56]"
  assayReadout: "Cell viability, BEAS-2B, Data1"
  number: 97.91
- substance: "AKDEKEL [TaPep1]"
  assayReadout: "Cell viability, BEAS-2B, Data1"
  number: 105.88
- substance: "AQSSLS [TaPep40]"
  assayReadout: "Cell viability, BEAS-2B, Data1"
  number: 116.45
- substance: "DAELDK [TaPep34]"
  assayReadout: "Cell viability, BEAS-2B, Data1"
  number: 114.56
